# TARGET SYSTEM: KRAS G12D (Homo sapiens, UniProt P01116+P62937, G12D)
# Sequence (P01116 1-169 isoform P01116-2 G12D limits assumed): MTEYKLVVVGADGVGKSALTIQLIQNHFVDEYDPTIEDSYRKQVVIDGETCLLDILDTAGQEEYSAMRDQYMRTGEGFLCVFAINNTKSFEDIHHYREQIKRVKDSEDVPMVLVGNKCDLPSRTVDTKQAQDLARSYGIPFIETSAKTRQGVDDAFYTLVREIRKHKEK
# Sequence (P62937 whole entry): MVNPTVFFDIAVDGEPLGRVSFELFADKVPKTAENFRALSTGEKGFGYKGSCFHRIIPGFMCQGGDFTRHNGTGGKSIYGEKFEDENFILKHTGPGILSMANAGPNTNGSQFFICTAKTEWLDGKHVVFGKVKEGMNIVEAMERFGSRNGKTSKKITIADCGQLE
# TEST DESCRIPTION: Disruption of BRAF RBD interaction with Ras (FRET / MOA assay, with Cyclophilin A)
# Assay type: biochemical
# SETTINGS: read-out: KRAS G12D FRET data, IC50
pIC50: −log10 of the molar value.
Recorded pIC50, one value per entry.

1) CCn1c(-c2cccnc2COC)c2c3cc(ccc31)-c1cc(O)cc(c1)C[C@H](NC(=O)[C@H](C(C)C)N(C)C(=O)[C@H]1CCN(C(=O)/C=C/CN3CCN(C)CC3)C1)C(=O)N1CCC[C@H](N1)C(=O)OCC(C)(C)C2 [Example A072]    5.00 to 6.00
2) CCn1c(-c2cccnc2[C@H](C)OC)c2c3cc(ccc31)-c1cc(O)cc(c1)C[C@H](NC(=O)[C@H](C(C)C)N(C)C(=O)[C@@H]1C[C@H]1C)C(=O)N1CCC[C@H](N1)C(=O)OCC(C)(C)C2 [Example A147]    6.00 to 7.00

query: Any idea what pIC50 was measured for CCn1c(-c2cccnc2[C@H](C)OC)c2c3cc(ccc31)-c1csc(n1)C[C@H](NC(=O)[C@H](C(C)C)N(C)C(=O)NC)C(=O)N1CCC[C@H](N1)C(=O)OCC(C)(C)C2 [Example A137] ?
result: 5.00 to 6.00

query: Which measured pIC50 value corresponds to C=CC(=O)N1CC[C@H](C(=O)N(C)[C@H](C(=O)N[C@H]2Cc3cc(O)cc(c3)-c3ccc4c(c3)c(c(-c3cncc(CN(C)C)c3)n4CC)CC(C)(C)COC(=O)[C@@H]3CCCN(N3)C2=O)C(C)C)C1 [Example A073] ?
result: < 5.00

query: Would you mind telling me what pIC50 value was observed for C=CC(=O)N1CC[C@H](C(=O)N(C)[C@H](C(=O)N[C@H]2Cc3cc(O)cc(c3)-c3ccc4c(c3)c(c(-c3cccnc3)n4CC)CC(C)(C)COC(=O)[C@@H]3CCCN(N3)C2=O)C(C)C)C1 [Example A045] ?
result: < 5.00

----------
# System: NCI-H358 (K-Ras G12C)
# TEST DESCRIPTION: CellTiter-Glo cell viability assay, 5-day treatment
# Assay type: cell-based
# SETTINGS: Homo sapiens, NCI-H358, H358, K-Ras G12C; read-out: Additional H358 Cell Viability assay data (K-Ras G12C, IC50)
pIC50: −log10 of the molar value.
ASSAY METRIC: pIC50

1) CCn1c(-c2cccnc2COC)c2c3cc(ccc31)-c1cc(O)cc(c1)C[C@H](NC(=O)[C@H](C(C)C)N(C)C(=O)[C@H]1CCN(C(=O)/C=C\CN(C)C)C1)C(=O)N1CCC[C@H](N1)C(=O)OCC(C)(C)C2    6.00 to 7.00
2) C=CC(=O)N1CC2(CCN2C(=O)N(C)[C@H](C(=O)N[C@H]2Cc3nc(n(C)n3)-c3ccc4c(c3)c(c(-c3cccnc3[C@H](C)OC)n4CC)CC(C)(C)COC(=O)C3CCCN(N3)C2=O)C(C)C)C1 (stereo partly drawn)    6.00 to 7.00
3) CCn1c(-c2cccnc2[C@H](C)OC)c2c3cc(ccc31)-c1csc(n1)C[C@H](NC(=O)[C@H](F)COC1CN(C(=O)C#CC(C)(C)N(C)C)C1)C(=O)N1CCCC(N1)C(=O)OCC(C)(C)C2 (stereo partly drawn)    > 8.00
4) C=CC(=O)N1CC2(CCN2C(=O)N(C)[C@H](C(=O)N[C@H]2Cc3cccc(n3)-c3ccc4c(c3)c(c(-c3cccnc3[C@H](C)OC)n4CC)CC(C)(C)COC(=O)C3CCCN(N3)C2=O)C(C)C)C1 (stereo partly drawn)    > 8.00
5) C=CC(=O)N1CCC[C@H]2CN(C(=O)N(C)[C@H](C(=O)N[C@H]3Cc4nc(cs4)-c4ccc5c(c4)c(c(-c4cccnc4[C@H](C)OC)n5CC)CC(C)(C)COC(=O)C4CCCN(N4)C3=O)C(C)C)C[C@H]21 (stereo partly drawn)    7.00 to 8.00
6) C=CC(=O)N1CC[C@H](C(=O)N(C)[C@@H](CC(F)(F)F)C(=O)N[C@H]2Cc3cccc(c3)-c3ccc4c(c3)c(c(-c3cccnc3[C@H](C)OC)n4CC)CC(C)(C)COC(=O)C3CCCN(N3)C2=O)C1 (stereo partly drawn)    6.00 to 7.00
7) CCn1c(-c2cccnc2[C@H](C)OC)c2c3cc(ccc31)-c1csc(n1)C[C@H](NC(=O)[C@H](C(C)C)N(C)C(=O)N(C)C1CN(C(=O)/C=C/C(C)(C)O)C1)C(=O)N1CCC[C@H](N1)C(=O)OCC(C)(C)C2 (atropisomer, axis not shown)    6.00 to 7.00
8) CCn1c(-c2cccnc2[C@H](C)OC)c2c3cc(ccc31)-c1cccc(n1)C[C@H](NC(=O)[C@H](C(C)C)N(C)C(=O)N1CCC13CN(C(=O)C#CC(C)(C)N(C)C)C3)C(=O)N1CCCC(N1)C(=O)OCC(C)(C)C2 (stereo partly drawn)    7.00 to 8.00

// next entry
query: Under NCI-H358 (K-Ras G12C): pIC50 value of C=CC(=O)N1CC[C@H](C(=O)N(C)[C@H](C(=O)N[C@H]2Cc3cc(O)cc(c3)-c3ccc4c(c3)c(c(-c3cccnc3[C@H](C)OC)n4C)CC(C)(C)COC(=O)[C@@H]3CCCN(N3)C2=O)C(C)C)C1 ?
result: 7.00 to 8.00
